Sourced from patent US9624167B2

# assayedTarget: hERG (Homo sapiens)
# Construct: expressed in transfected cells; host or cells: Chinese Hamster Ovary cells (hERG-CHO), stably transfected
# Sequence (Q12809 whole entry): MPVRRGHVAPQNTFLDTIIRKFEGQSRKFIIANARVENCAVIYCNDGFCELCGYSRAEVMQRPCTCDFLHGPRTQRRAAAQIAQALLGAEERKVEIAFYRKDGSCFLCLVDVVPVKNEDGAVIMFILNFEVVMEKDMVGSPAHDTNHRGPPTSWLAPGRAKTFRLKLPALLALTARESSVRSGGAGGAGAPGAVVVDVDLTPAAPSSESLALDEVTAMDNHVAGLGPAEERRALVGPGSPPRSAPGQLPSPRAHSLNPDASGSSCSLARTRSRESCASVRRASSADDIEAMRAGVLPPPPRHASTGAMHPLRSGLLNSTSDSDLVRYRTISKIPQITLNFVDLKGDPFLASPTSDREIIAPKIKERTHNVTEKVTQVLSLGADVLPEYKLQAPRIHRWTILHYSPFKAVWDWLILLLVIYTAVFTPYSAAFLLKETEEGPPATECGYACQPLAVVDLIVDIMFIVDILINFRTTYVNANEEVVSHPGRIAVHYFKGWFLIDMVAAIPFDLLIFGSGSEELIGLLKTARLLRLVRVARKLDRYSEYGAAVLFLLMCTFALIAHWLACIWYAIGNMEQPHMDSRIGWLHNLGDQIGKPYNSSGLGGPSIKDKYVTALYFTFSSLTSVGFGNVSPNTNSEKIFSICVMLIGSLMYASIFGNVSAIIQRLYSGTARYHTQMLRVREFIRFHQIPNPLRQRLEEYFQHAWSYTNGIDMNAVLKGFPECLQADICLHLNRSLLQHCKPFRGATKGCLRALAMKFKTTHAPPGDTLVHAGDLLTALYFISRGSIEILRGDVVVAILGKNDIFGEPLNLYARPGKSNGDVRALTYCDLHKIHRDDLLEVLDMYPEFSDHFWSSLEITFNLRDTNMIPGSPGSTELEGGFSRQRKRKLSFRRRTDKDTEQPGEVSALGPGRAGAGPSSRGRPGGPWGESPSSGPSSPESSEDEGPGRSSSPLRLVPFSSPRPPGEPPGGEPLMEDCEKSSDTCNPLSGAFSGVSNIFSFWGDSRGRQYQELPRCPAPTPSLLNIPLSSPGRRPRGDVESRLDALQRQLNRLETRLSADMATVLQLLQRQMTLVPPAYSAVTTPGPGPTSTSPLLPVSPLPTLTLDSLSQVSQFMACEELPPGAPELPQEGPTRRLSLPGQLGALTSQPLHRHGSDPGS
# measurementProtocol: hERG Ion Channel Assay (Q-patch, hERG-CHO cells)
# Assay type: cell-based
# conditionDescription: human, CHO cells stably transfected with hERG (hERG-CHO), pH 7.4, 30 μM, hERG tail current
Entries and their inhibition at 5 min, 30 µM values follow.
Please respond with the number in % and leave the unit unwritten.

[
  {
    "molecule": "C[C@]1(O)CC[C@H](NS(=O)(=O)c2ccc(-c3c(F)cc(F)cc3F)cc2)CC1",
    "resultUnit": "%",
    "assayValue": 45
  },
  {
    "molecule": "C[C@]1(O)CC[C@@H](NS(=O)(=O)c2ccc(-c3c(F)cc(F)cc3F)cc2)CC1",
    "resultUnit": "%",
    "assayValue": 36
  },
  {
    "molecule": "C[C@]1(O)CC[C@@H](NS(=O)(=O)c2ccc(-c3ccc(Cl)cc3C#N)cc2)CC1",
    "resultUnit": "%",
    "assayValue": 74
  },
  {
    "molecule": "C[C@]1(O)CC[C@@H](NS(=O)(=O)c2ccc(-c3ncc(Cl)cc3Cl)c(F)c2)CC1",
    "resultUnit": "%",
    "assayValue": 60
  },
  {
    "molecule": "O=S(=O)(N[C@H]1CC[C@H](O)CC1)c1ccc(-c2ccc(F)cc2F)cc1 [ABD599, reference compound]",
    "resultUnit": "%",
    "assayValue": 85
  }
]

Prompt: # input molecule: "C[C@]1(O)CC[C@@H](NS(=O)(=O)c2ccc(-c3ccc(F)cc3C(F)(F)F)cc2)CC1" ; wanted: its inhibition at 5 min, 30 µM
Completion: 94

Prompt: # input molecule: "C[C@]1(O)CC[C@@H](NS(=O)(=O)c2ccc(-c3ncc(Cl)cc3Cl)cc2)CC1" ; wanted: its inhibition at 5 min, 30 µM
Completion: 47

Prompt: # input molecule: "C[C@]1(O)CC[C@H](NS(=O)(=O)c2ccc(-c3ccc(Cl)cc3C#N)cc2)CC1" ; wanted: its inhibition at 5 min, 30 µM
Completion: 79

Prompt: # input molecule: "C[C@]1(O)CC[C@@H](NS(=O)(=O)c2ccc(-c3ncc(F)cc3F)c(F)c2)CC1" ; wanted: its inhibition at 5 min, 30 µM
Completion: 27

Prompt: # input molecule: "C[C@]1(O)CC[C@@H](NS(=O)(=O)c2ccc(-c3ncc(F)cc3F)cc2)CC1" ; wanted: its inhibition at 5 min, 30 µM
Completion: 23

Prompt: # input molecule: O=S(=O)(N[C@H]1CC[C@H](O)CC1)c1ccc(-c2ncc(Cl)cc2Cl)cc1 [ABD836, reference compound] ; wanted: its inhibition at 5 min, 30 µM
Completion: 50

Prompt: # input molecule: "C[C@]1(O)CC[C@H](NS(=O)(=O)c2ccc(-c3ncc(Cl)cc3Cl)cc2)CC1" ; wanted: its inhibition at 5 min, 30 µM
Completion: 13

###

# Tested on: TK6 human lymphoblastoid cell line
# measurementProtocol: GreenScreen HC cytotoxicity (propidium iodide uptake)
# Format: cell-based
# conditionDescription: lowest effective concentration for loss of cell viability, 24 h
propertyName: Cytotoxicity, LEC, 24 h (µM)
Please respond with the number in µM and leave the unit unwritten.

Prompt: Lab request: please report Cytotoxicity, LEC, 24 h under test system TK6 human lymphoblastoid cell line for C[C@]1(O)CC[C@@H](NS(=O)(=O)c2ccc(-c3ccc(Cl)cc3C#N)cc2)CC1 [HMC-C-01-B]
Completion: 0.08

Prompt: Lab request: please report Cytotoxicity, LEC, 24 h under test system TK6 human lymphoblastoid cell line for Cc1cc(S(=O)(=O)N[C@H]2CC[C@H](O)CC2)ccc1-c1ccc(F)cc1F [ABD735]
Completion: 0.31

Prompt: Lab request: please report Cytotoxicity, LEC, 24 h under test system TK6 human lymphoblastoid cell line for C[C@]1(O)CC[C@@H](NS(=O)(=O)c2ccc(-c3c(F)cc(F)cc3F)cc2)CC1 [HMC-C-03-B]
Completion: 0.17

Prompt: Lab request: please report Cytotoxicity, LEC, 24 h under test system TK6 human lymphoblastoid cell line for C[C@]1(O)CC[C@@H](NS(=O)(=O)c2ccc(-c3ncc(F)cc3F)c(F)c2)CC1 [HMC-N-01-B]
Completion: 0.01
